# Tested Target: Islet amyloid polypeptide (IAPP, or amylin), wild-type (Homo sapiens)
# Construct: SEC-purified monomer; N-terminally biotinylated at Lys1 (PEG4) for SPR only; cut from pro-islet amyloid polypeptide
# Sequence (P10997 34-70): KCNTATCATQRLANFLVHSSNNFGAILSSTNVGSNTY
# Test Name: SPR, biotinylated IAPP on streptavidin chip
# Format: binding
Measured Metric: Kd

Query: // map Cc1ccc([C@@H]2O[C@H](CO)[C@@H](O)[C@H](O)[C@H]2O)cc1Cc1ccc(-c2ccc(F)cc2)s1 [canagliflozin] to recorded Kd (system: Islet amyloid polypeptide (IAPP, or amylin), wild-type (Homo sapiens))
Response: > 150 µM
